Hello, the source for this data is PubChem BioAssay (NCI), in case you need it.

test: NCI Yeast Anticancer Drug Screen. Data for the rad50 strain (AID 155);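 also: 0% = growth of vehicle-only cultures of the same strain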; settings: S. cerevisiae rad50 strain growth inhibition; at 50.0 µM (retest, dose inferred, filed as 5.0); stronger effect = higher value
The panel holds about 79,000 compounds, 15% with a hit somewhere; the sample as a whole holds those more often.
growth inhibition for assorted compounds
ASSAY ENDPOINT: growth inhibition (%)

[[record]]
compound = "Nc1ccc(Cl)c2cccnc12"
assay_value = 92

[[record]]
compound = "CCCNC(=O)c1cc2ccccc2cc1C(=O)OC"
assay_value = 90

[[record]]
compound = "O=C(CC1(O)C(=O)Nc2c(Cl)cc(Cl)cc21)c1ccc(Br)cc1Br (configuration not stated)"
assay_value = 98

[[record]]
compound = "c1ccc(-c2cc(N3CCCCC3)c(-c3ccccc3)o2)cc1"
assay_value = 11

[[record]]
compound = "O=C(/C=C/c1ccccc1)NOC(=O)/C=C/c1ccccc1"
assay_value = 93

[[record]]
compound = "c1ccc2cc3c(ccc4cccc[n+]43)cc2c1"
assay_value = 28

[[record]]
compound = "COC(=O)c1cccc2c3ccccc3c3ccccc3c12"
assay_value = 98

[[record]]
compound = "C#CC[N+](CC)(CC)CCNC(=O)CCCCCCCCCCCCCCC"
assay_value = 99

[[record]]
compound = "CCOC(=O)c1ccc2c3c([nH]c2c1C)-c1ccccc1CC3"
assay_value = 93

[[record]]
compound = "CCN1/C(=C/C=C/C=C\\C=C\\c2sc3ccc4ccccc4c3[n+]2CC)Sc2ccc3ccccc3c21"
assay_value = 68

[[record]]
compound = "C#CC(CC(C)C)(CC(C)C)OC(=O)Nc1ccccc1"
assay_value = 95

[[record]]
compound = "N/N=C(/N)SCCCCCCCCCCS/C(N)=N/N"
assay_value = 5


###

assay: NCI Yeast Anticancer Drug Screen. Data for the bub3 strain (AID 167); conditions: S. cerevisiae bub3 mutant strain, at 5.0 µM (retest, dose inferred, filed as 0.5), stronger effect = higher value
Compounds without any hit were thinned out: in the full panel of roughly 79,000, 15% have a hit. The source made the active and inactive calls. Rule as the data show it: active = growth inhibition above about 70%; inactive = the rest.
ASSAY ENDPOINT: growth inhibition

[[record]]
molecule = "NC(=S)NNCCC(=O)Nc1ccccc1C(F)(F)F"
assay_value = "0% (inactive)"

[[record]]
molecule = "COc1ccc(-c2cc(=O)c3c(C)ccnc3[nH]2)cc1"
assay_value = "25% (inactive)"

[[record]]
molecule = "O=C(Nc1ccc(Br)cc1)Oc1ccccc1C(=O)Nc1ccccc1"
assay_value = "5% (inactive)"

[[record]]
molecule = "OC(CCN1CCCCC1)(Cc1ccccc1)c1cccc(Cl)c1 (stereo unspecified)"
assay_value = "15% (inactive)"

[[record]]
molecule = "CO[C@H]1CC[C@@]2(C)C(=CC[C@H]3[C@@H]4C[C@H](OC(C)=O)C[C@@]4(C)CC[C@@H]32)C1"
assay_value = "1% (inactive)"

[[record]]
molecule = "CN(C)c1ccc(C(=O)C2CCCC(C)(C)C2)cc1 (stereo unspecified)"
assay_value = "57% (inactive)"

[[record]]
molecule = "CCC(=O)C(C(=O)CC)c1c(OC(=O)c2ccccc2)ccc(O)c1C(=O)OC"
assay_value = "-2% (inactive)"

[[record]]
molecule = "Cc1c(Cl)ccc2c(C(O)CNCc3ccccc3)cc(-c3ccc(Cl)cc3)nc12 (stereo unspecified)"
assay_value = "26% (inactive)"

[[record]]
molecule = "Nc1ccccc1/C=C1/Sc2cc[nH]c2C1=O"
assay_value = "15% (inactive)"

[[record]]
molecule = "Cc1cc(O)cc2c1c(=O)c1ccccc1n2C"
assay_value = "18% (inactive)"

[[record]]
molecule = "CCCCCCCOC(=O)c1cc2cc(C(CC)C(CC)c3ccc(O)cc3)ccc2oc1=O (stereo unspecified)"
assay_value = "11% (inactive)"


###

experiment: NCI Yeast Anticancer Drug Screen. Data for the mlh1 rad18 strain (AID 175); conditions: S. cerevisiae mlh1 rad18 strain growth inhibition; at 50.0 µM; stronger effect = higher value
Compounds without any hit were thinned out: in the full panel of roughly 79,000, 15% have a hit. Activity calls are given as the source filed them. No stated cut-off is given here; in the data, active means growth inhibition above about 70%; inactive means the rest.
ASSAY ENDPOINT: growth inhibition

[[record]]
compound = "N#C/C(=C1/C(=O)c2ccccc2-c2ccccc21)c1ccccc1"
assay_value = "98.7% (active)"

[[record]]
compound = "COc1ccccc1C1c2cc3c(cc2OC(C)(O)C1C)OCO3 (stereo not given)"
assay_value = "85.5% (active)"

[[record]]
compound = "Sc1ccccc1C1N(Cc2ccc(Cl)cc2)CCCN1Cc1ccc(Cl)cc1"
assay_value = "79.6% (active)"

[[record]]
compound = "CC(=O)Nc1ccc(-c2csc(Nc3ccnc4cc(Cl)ccc34)n2)cc1"
assay_value = "82.9% (active)"

[[record]]
compound = "Oc1ccc2c(c1)OCC1c3ccccc3OC21 (stereo not given)"
assay_value = "76.7% (active)"

[[record]]
compound = "FC(F)(F)COP1(OCC(F)(F)F)=NP(OCC(F)(F)F)(OCC(F)(F)F)=NP(c2ccccc2)(c2ccccc2)=N1"
assay_value = "56.1% (inactive)"

[[record]]
compound = "Cc1cc([N+](=O)[O-])cc(C)c1OC(=O)Nc1c(Cl)cccc1Cl"
assay_value = "24.1% (inactive)"

[[record]]
compound = "Cc1ccc(NCCN(C)C)c2c(=O)c3c(O)cccc3sc12"
assay_value = "55.8% (inactive)"

[[record]]
compound = "C=C(Cl)C(=NC(C)(C)C)Nc1ccccc1Cl"
assay_value = "85.8% (active)"

[[record]]
compound = "O=C(CCC(NC(=O)OCc1ccccc1)C(=O)OCc1ccccc1)NC(CSCc1ccccc1)C(=O)NCC(=O)Oc1c(Cl)c(Cl)c(Cl)c(Cl)c1Cl (stereo not given)"
assay_value = "60.7% (inactive)"


###

Measured growth inhibition values are reported for all entries that follow.
test: NCI Yeast Anticancer Drug Screen. Data for the bub3 strain (AID 167); conditions: S. cerevisiae bub3 mutant strain, at 5.0 µM (retest, dose inferred, filed as 0.5), stronger effect = higher value
This is part of a sample that, as a whole, favours compounds with a hit. Of some 79,000 tested, about 15% had one in any assay.
ASSAY ENDPOINT: growth inhibition (%)

[[record]]
molecule = "Clc1ccc(CN2COc3c(ccc4cccnc34)C2)c(Cl)c1"
unit_descriptor = "%"
assay_value = -6

[[record]]
molecule = "CC(=O)NCCN(C)C"
unit_descriptor = "%"
assay_value = -3

[[record]]
molecule = "Cc1ccc(S(=O)(=O)/C=C2\\COc3ccccc3C2=O)cc1"
unit_descriptor = "%"
assay_value = 77

[[record]]
molecule = "COc1cc(C(c2cc3c(cc2OC(C)=O)OCO3)C(C(C)=O)C(C)=O)cc(OC)c1OC(C)=O (configuration not stated)"
unit_descriptor = "%"
assay_value = 8

[[record]]
molecule = "CC(=O)c1cccc(NC2C(N)C(NC(=O)N(C)C)(C(C)O)C(C)(O)C2(O)COC(=O)c2c(C)cccc2O)c1 (configuration not stated)"
unit_descriptor = "%"
assay_value = 36

[[record]]
molecule = "CC(=O)Oc1c2c(c(OC(C)=O)c3c1n(C(C)=O)c1ccccc1n3C(C)=O)n(C(C)=O)c1ccccc1n2C(C)=O"
unit_descriptor = "%"
assay_value = 44

[[record]]
molecule = "OC(Cc1ccc(Br)cc1)CN1CCC(c2ccccc2)CC1 (configuration not stated)"
unit_descriptor = "%"
assay_value = 83

[[record]]
molecule = "N/C(=N\\N=C\\c1cc(I)cc(I)c1O)NO"
unit_descriptor = "%"
assay_value = -2

[[record]]
molecule = "O=C1C(=O)c2ccccc2C(O)=C1Sc1ccccc1"
unit_descriptor = "%"
assay_value = 15

[[record]]
molecule = "CC1=C(C)C(=O)C(CNCc2ccccc2)=[C-]C1=O.[Co].[c-]1[c-][c-][cH-][c-]1"
unit_descriptor = "%"
assay_value = 11

[[record]]
molecule = "CCCCCCCCCCCCCCNCCC(=O)O"
unit_descriptor = "%"
assay_value = -6

[[record]]
molecule = "CCOC(C)(OCC)C(N)c1ccccc1 (configuration not stated)"
unit_descriptor = "%"
assay_value = 6

[[record]]
molecule = "C#CC(CC(C)C)(CC(C)C)OC(=O)Nc1ccccc1"
unit_descriptor = "%"
assay_value = 3

[[record]]
molecule = "Clc1ccccc1C(Cc1c(Cl)cccc1Cl)Cn1ccnc1 (configuration not stated)"
unit_descriptor = "%"
assay_value = 75

[[record]]
molecule = "CN(C)CCCN1c2cc(Cl)ccc2Sc2ccc3ccccc3c21"
unit_descriptor = "%"
assay_value = 5

[[record]]
molecule = "CC([NH-])C(=O)O.[Cu+2].[NH-]C(Cc1cnc[nH]1)C(=O)O (configuration not stated)"
unit_descriptor = "%"
assay_value = -5

[[record]]
molecule = "O=C(/C=C\\c1ccc([N+](=O)[O-])o1)/C=C/c1ccc([N+](=O)[O-])o1"
unit_descriptor = "%"
assay_value = 38

[[record]]
molecule = "COC(=O)C1(c2ccc(N(C)C)cc2OC)CCCN(C(=O)Oc2ccccc2[N+](=O)[O-])CCc2c1[nH]c1ccccc21 (configuration not stated)"
unit_descriptor = "%"
assay_value = 53

[[record]]
molecule = "O=c1[nH]c2c([N+](=O)[O-])cc(Cl)cc2nc1/C=C(\\O)c1ccc2ccccc2c1"
unit_descriptor = "%"
assay_value = -9

[[record]]
molecule = "O=C(NC1(OC(=O)c2ccc(Cl)cc2)CC1)c1ccc(Cl)cc1"
unit_descriptor = "%"
assay_value = -8

[[record]]
molecule = "Cc1cc(N=Nc2ccncc2C)ccc1N"
unit_descriptor = "%"
assay_value = -40

[[record]]
molecule = "c1ccc2c(B(c3cccc4ccccc34)c3cccc4ccccc34)cccc2c1"
unit_descriptor = "%"
assay_value = -4

